Reference for the values: the supplement of paper PMC9732359

Each entry below lists one item and its recorded protein stability index value.
# PROCEDURE SUMMARY: protein stability index of a GFP-peptide fusion (yeast GPS) (PSI 1-4); higher = more stable; sorted into four equal gates, so the index is relative within each strain
# CONDITION DESCRIPTION: san1∆
// print number alone

Sample records with protein stability index:
| ITEM SEQUENCE | READOUT KIND | MEASUREMENT |
| --- | --- | --- |
| NGKLTSANERLFGNRPS [YML031W/NDC1] | protein stability index | 2.69 |
| IKKEEGKIDEAADILCE [RPN5] | protein stability index | 2.95 |
| GSMTKTWYVGNSRGKFD [SSN2] | protein stability index | 3.08 |
| KTKEAVAALKAVGAHSD [RPL4A] | protein stability index | 3.08 |
| NTFKVLSKFFFFIFVFN [COB] | protein stability index | 1.32 |
| AVFIVPKILIREHERVI [SWP82] | protein stability index | 1.69 |
| AFFHLFASLRVLPDADV [YJL039C/NUP192] | protein stability index | 1.36 |
| ATLQSNEPTQKDEEETE [DSN1] | protein stability index | 3.17 |
| DTSLCINGEPSIHVNRV [RRI1] | protein stability index | 2.99 |
| TDGELDIEFINSLLTIV [RPC34] | protein stability index | 2.4 |

What the record says about VDAITRCYQPFELFDNK [SNU114] : protein stability index is 2.96

Value of protein stability index reported for the sequence MSLSNKTVKELRQLLKE [RRI1] is 1.28

Per the records, this sequence ( EKLTSKSLDEQLLLLSD [LRP1] ) has protein stability index equal to 2.94

Query ILNELEVFIGRVKDQDG [YJR042W/NUP85] yields protein stability index of 3

protein stability index for TTTKIIDSTDHIRKASS [LRP1] is 1.64

Looking up VIFDASIKDTQNVGQGK [BRN1] , I see its protein stability index listed as 2.61

protein stability index reading for DQYIQKQVQISHHLKAD [YGL172W/NUP49] : 2.6
